# Test system: COLO 205 colon
# Assay overview: NCI-60 one-dose screen, 48 h (100 = growth as untreated, 0 = no growth, -100 = all killed)
# Experimental context: 10 µM unless noted
The panel holds about 83,000 compounds, 20% with a hit somewhere; the sample as a whole holds those more often.
Measurement label: growth (%)
Expressed in %, but write only the number.

These solved cases illustrate the format of a correct answer.
Compound	Unit abbreviation	growth
Cn1cc(-c2cc3ncnc(Nc4ccc(NC(=O)Nc5cc(C(C)(C)C)on5)cc4)c3s2)cn1	%	12.9
O=S(=O)(NCCCNc1nccc(-c2[nH]c(-c3ccccc3)nc2-c2ccc(F)c(O)c2)n1)c1ccc(C(F)(F)F)cc1	%	88.3
O=C1Nc2ccccc2/C1=N\c1nnc(-c2ccccc2)o1	%	107
Cc1ccc(C)c(NC2=C(Cl)C(=O)c3nc(C)ccc3C2=O)c1	%	107
Cc1ccc(OCc2occc2C(=O)N2CCOCC2)cc1	%	117

Return reported growth; argument: COc1ccc(OC)c(CCn2cncc2-c2c[nH]c3ccc(Cl)cc23)c1 29.8

Same question, CCCCCCCCCCCC(=O)NC(C)(C)C(=O)N1CCCC1C(=O)NC(C)(C)C(=O)NC(C)(C)C(=O)N1CCCC1C(=O)NC(C)(C)C(=O)NC(C)(C)C(=O)N1CCCC1C(=O)NC(C)C(=O)NCCC(=O)NC(C)C(=O)NC(C)(C)C(=O)NC(C)(C)C(=O)NC(C)(C)C(=O)NCCC(=O)NC(C)(C)C(=O)NC(C)(C)C(=O)NC(C)(C)C(=O)NC(C)C(=O)NCCC(=O)O (stereo not given) this time -89.2

// next record C[C@@H]1OCC2(CCN(c3cnc(C(=O)Nc4cc(F)cc5cccnc45)cn3)CC2)[C@@H]1N 9.27

// repeat for CCNCCOc1ccc(/C(=C(/CC)c2ccc(Cl)cc2)c2ccc(OCCCN(C)C)cc2)cc1 and report -82.3

---

# Test system: HCT-116 colon
# Assay overview: NCI-60 one-dose screen, 48 h (100 = growth as untreated, 0 = no growth, -100 = all killed)
# Experimental context: 10 µM unless noted
Compounds without any hit were thinned out: in the full panel of roughly 83,000, 20% have a hit.
# key: entry, value: growth
Form entry: value (%) — number only.

Compound	Unit abbreviation	growth
CN1CCN(Cc2ccc(NC(=O)c3cncc(C#Cc4cnc5ccc(OC6CCOCC6)nn45)c3)cc2C(F)(F)F)CC1	%	-89.5
O=[N+]([O-])c1ccc(NC(=S)NNC(=S)Nc2ccc(Br)cc2)cc1	%	90.6
O=C(CSc1nc2ccccc2c(=O)n1-c1ccc(S(=O)(=O)Nc2ccc(Cl)nn2)cc1)Nc1ccc(S(=O)(=O)Nc2ccc(Cl)nn2)cc1	%	105
C=C(C=O)[C@@H]1CC[C@]2(C(=O)O)CC[C@]3(C)C(CC[C@@H]4[C@@](C)(CCC#N)[C@H](C(=C)C=O)CC[C@]43C)[C@@H]12 (stereo partly drawn)	%	-82.8
NC(=O)n1c(=O)n(-c2cccc(C(F)(F)F)c2)c(=O)c2cc(-c3ccc(F)cc3F)ccc21	%	2.24

Quick check: growth of COc1ccc(-c2cnc(NC(=O)CCCCCCNC(=O)C(O)(O)C(F)(F)F)s2)cc1 ? -9.91

And then Cc1ccc(NC2=C(Cl)C(=O)c3nc(C)ccc3C2=O)c(C)c1 , what is it? -67.7

---

Listing: growth of selected molecules
# Test system: SF-295 CNS
# Assay overview: NCI-60 one-dose screen, 48 h (100 = growth as untreated, 0 = no growth, -100 = all killed)
# Experimental context: 10 µM unless noted
About 83,000 compounds went through this panel and 20% of them were active in at least one assay; those are over-represented in the sample as a whole.
Give a bare numeral; the unit % is implied.

Please look up its growth: COc1ccc(-c2cc(-c3ccc(N4CCOCC4)cc3)n3c(n2)nc2ccccc23)cc1OC 100

Entry NC(=S)n1c(=O)n(-c2cccc(C(F)(F)F)c2)c(=O)c2cc(-c3ccc(F)cc3F)ccc21 please -12

Note, next up: Cc1ccc(/C(N)=N/C(N)=N/c2nc3ccccc3s2)cc1 32.9

Same lookup for COc1cc2cc(Oc3ccc(NC(=O)Nc4ccc(F)c(C(F)(F)F)c4)cc3)c(C)nc2cc1OCCN(C)C , please. 104

Then what about the molecule COc1ccc(OC)c(CCn2cncc2-c2c[nH]c3ccc(Cl)cc23)c1 ? 28.9

Now give it for CC(=O)c1cc(C(=O)N2c3ccccc3Sc3ccccc32)n2c1ccc1ccccc12 too. 41

Query Cn1cc(-c2nn3cc(-c4ccncc4)nc3s2)c2cc(Br)ccc21 next 38.5

How about CC(C)C(/C=C/c1[nH]ncc1-c1cc(Cl)ccc1O)N1CCOCC1 (stereo not given) ? 96

Can you check Cc1ccc(C(=O)Nc2ccc(CNCCN3CCNCC3)c(C(F)(F)F)c2)cc1C#Cc1cnc2cccnn12 next? -37.4

Next entry: COC(=O)CCSC1=C(C)C(=O)c2ccccc2C1=O 102

---

# Test system: UACC-62 melanoma
# Assay overview: NCI-60 one-dose screen, 48 h (100 = growth as untreated, 0 = no growth, -100 = all killed)
# Experimental context: 10 µM unless noted
This is part of a sample that, as a whole, favours compounds with a hit. Of some 83,000 tested, about 20% had one in any assay.
Overview of recorded growth for various molecules
The response must be a number in % with no trailing unit.

Molecule	Unit abbreviation	growth
CC[C@]12C=CCN3CC[C@]4(C(=C(C(=O)OC)C1)Nc1cc5c(cc14)[C@@H]1[C@H](O5)[C@@H](O)[C@@]4(CC)CC(C(=O)OC)=C5Nc6cc(O)ccc6[C@@]56CCN1C46)C32 (some centres undefined)	%	19
CN1CCN(Cc2ccc(/C=N/Nc3ccnc4cc(Cl)ccc34)cc2)CC1	%	104
COc1ccc(C(=NNS(=O)(=O)c2ccc(C)cc2)c2ccccc2)cc1OC	%	70.3

Which growth is reported for this molecule? COc1cc(/C=C2/C(=O)Nc3ccc(Cl)cc32)ccc1OCc1ccc(Cl)cc1 70.2

---

A collection of compounds and their measured growth
# Test system: SK-OV-3 ovarian
# Assay overview: NCI-60 one-dose screen, 48 h (100 = growth as untreated, 0 = no growth, -100 = all killed)
# Experimental context: 10 µM unless noted
This is part of a sample that, as a whole, favours compounds with a hit. Of some 83,000 tested, about 20% had one in any assay.
// units = %; emit number, no label

Example entries begin here.
Compound	Test result
COc1ccc(OC)c(NC(=O)CCCCCCNC(=O)C(O)(O)C(F)(F)F)c1	6.28
CN(C)CCNc1ccc2ncc(C#Cc3cncc(C(=O)Nc4ccc(CN5CCN(C)CC5)c(C(F)(F)F)c4)c3)n2n1	45.1
CN(C)c1ccc(/C=N/Nc2nc(N/N=C/c3ccc(N(C)C)cc3)nc(N3CCCCC3)n2)cc1	132
COc1ccc([C@H]2C(=O)N(c3cc(OC)c(OC)c(OC)c3)[C@@H]2c2ccc(OC)c(O)c2)cc1	27.5
Cn1cc(-c2nn3cc(-c4ccncc4)nc3s2)c2cc(F)ccc21	92.7

Could you now look at the following compound, please?
Query: growth; subject: N#Cc1c(-c2cccs2)cc(-c2cnccn2)nc1SCC(=O)N/N=C/c1ccncc1 109

---

# System: MDA-MB-231 breast
# Assay overview: NCI-60 one-dose screen, 48 h
# Experimental context: 10 µM unless noted
About 83,000 compounds went through this panel and 20% of them were active in at least one assay; those are over-represented in the sample as a whole. Active and inactive are the calls of the source. Rule for the calls: active = growth percent below 10; inactive = the rest.
// allowed return values: True = active, False = inactive

Example cases with answers are listed next.
Molecule	Discrete label
CCOC(=O)c1cccnc1Nc1ccc(NC(=O)Nc2ccc(Cl)c(C(F)(F)F)c2)cc1	False
Nn1c(=O)n(-c2cccc(C(F)(F)F)c2)c(=O)c2cc(-c3ccc(F)cc3F)ccc21	True
CCc1cc2c(cc1Cl)nc1c(=O)[nH]c(=O)nc-1n2CCOCC(C)C	False
Brc1cc(-c2cc(-c3ccc4c(c3)OCCO4)[nH]n2)cs1	False
CN1CCN(c2ccc(Nc3nc(NCCCNS(=O)(=O)c4cccc(F)c4)c4sccc4n3)cc2)CC1	False

Could you please tell me the result logged for O=C(Nc1cccc(C(F)(F)F)c1)N1CCN(c2cc(-c3cn(-c4ccccc4)nc3-c3cccc(O)c3)ccn2)CC1 in this assay? False

Then NC1[C@H]2CN(c3cnc(C(=O)Nc4cc(F)cc5cccnc45)cn3)C[C@@H]12 (some centres undefined) ? False

Then what about the molecule Cn1ncc2c(C(=O)c3ccc(F)cc3)nc(C(C)(C)C)nc21 ? False

Another molecule to look at: O=c1nc(Nc2ccc([N+](=O)[O-])cc2O)sc2ccccc12 False

Follow-up item: CCN(CC)c1ccc(/C=N/NC(=O)c2ccc(S(N)(=O)=O)cc2)c(O)c1 False
